meta.source: patent US20230080224A1

- assayed-target: T1, human ALPPL2 (recombinant protein) (human, UniProt P10696 20-503, limits assumed)
- T1 construct: biotinylated where captured on streptavidin
- T1 sequence (P10696 20-503 limits assumed): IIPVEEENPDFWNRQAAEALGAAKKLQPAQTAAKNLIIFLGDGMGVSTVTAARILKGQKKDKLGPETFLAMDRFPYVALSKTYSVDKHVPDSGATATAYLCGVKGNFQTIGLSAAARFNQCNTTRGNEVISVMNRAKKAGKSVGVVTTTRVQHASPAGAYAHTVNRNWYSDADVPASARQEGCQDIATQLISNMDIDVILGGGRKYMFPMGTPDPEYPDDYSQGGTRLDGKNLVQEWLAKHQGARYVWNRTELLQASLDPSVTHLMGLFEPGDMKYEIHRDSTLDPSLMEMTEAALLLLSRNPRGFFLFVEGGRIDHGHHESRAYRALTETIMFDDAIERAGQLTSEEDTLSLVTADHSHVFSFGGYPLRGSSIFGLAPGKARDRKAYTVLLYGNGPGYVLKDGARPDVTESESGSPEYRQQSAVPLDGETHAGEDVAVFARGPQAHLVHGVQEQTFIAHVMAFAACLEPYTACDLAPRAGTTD
- assay-info: screen of rabbit B-cell clones by ELISA and FACS
parameter-measured: binding result

binder="AB1C34 (antibody, V domains shown, Rabbit antibody cloned from a single B cell) VH: QSLEESGGDLVKPGASLTLTCTASGFDFSSNGMCWVRQAPGKGLEWIACIYVDSSDSTYYASWVNGRFTISKTSSTTVTLQMTSLTAADTATYFCARGYGYVGSAMDLWGQGTLVTVSS VL: NIVMTQTPSPVSGAVGGTVTIKCQASQSISNELAWFQQKPGQRPKLLIYGASTLESGVPSRFSGSGSGTEFTLTISDLECADAATYYCQSAYYSSSSSYANTFGGGTEVVVK" parameter_measured="binding result" assay_value=binds
binder="AB2C133 (antibody, V domains shown, Rabbit antibody cloned from a single B cell) VH: QSLEESGGDLVKPGASLTLTCTASGLDFSSSYWICWVRQAPGKGLEWIGCIKTATETTVYASWAKGRFTISKTSSTTVTLQMTSLTAADTATYLCAKTYADNGGYINLWGPGTLVTVSS VL: LVMTQTPSSVSAAVGGTVTINCQASQNIYNNLAWYQQKPGQRPKLLIYGASNLESGVPSRFKGSGSGTEYTLTISDLECDDAATYYCQSADLTSSINVFGGGTEVVVK" parameter_measured="binding result" assay_value=binds
binder="AB1C23 (antibody, V domains shown, Rabbit antibody cloned from a single B cell) VH: QSLEESGGDLVKPGASLTLTCTASGFSFSSTYYMCWVRQAPGKGLEWIACIYTGSTGSTYYASWAKGRFTGSKTSSTTVTLQMTSLTAADTATYFCARGDYTYAYAGGAHVTNYYFDLWGPGTLVTVSS VL: LVMTQTPSSVSAAVGGTVTINCQASQNIYSNLAWYQQKPGQRPKLLIFGASNLESGVPSRFKGSGSGTEFTLTISDLECDDAATYYCQTADYSSSTDWGAFGGGTEVVVK" parameter_measured="binding result" assay_value=binds
